These measurements were taken from patent US5208223A.

- TARGET ENTITY: porcine pancreatic PLA2 (Sus scrofa)
- Construct: purchased Sigma
- Sequence (P00592 23-146): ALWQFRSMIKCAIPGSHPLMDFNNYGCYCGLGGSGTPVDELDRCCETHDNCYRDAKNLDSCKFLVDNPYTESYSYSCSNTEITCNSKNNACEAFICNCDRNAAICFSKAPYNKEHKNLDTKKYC
- ASSAY OVERVIEW: MPLA2 assay: in vitro porcine pancreatic phospholipase A2, mixed micelle design, substrate 2 nM
- Type: biochemical
- TEST SETTINGS: dose 20 μ/ml, subs. con. 2, read-out: % Inh.
PROPERTY NAME: inhibition at 20 µg/mL (%)

COMPOUND: CCCCCCCCCCCCCCCCOCC(COP(=O)([O-])OCC[N+](C)(C)C)OC(=O)CCl (centres unmarked)
TARGET ENTITY: porcine pancreatic PLA2 (Sus scrofa)
OUTPUT UNIT: %
MEASURED NUMBER: 72
--
COMPOUND: CCCCCCCCCCCCCCCCOCC(COP(=O)([O-])OCC[N+](C)(C)C)C[S+]([O-])CCCCCCCCCCCCCCCC (centres unmarked)
TARGET ENTITY: porcine pancreatic PLA2 (Sus scrofa)
OUTPUT UNIT: %
MEASURED NUMBER: 84
--
COMPOUND: CCCCCCCCCCCCCCCCS(=O)(=O)CCCOP(=O)([O-])OCC[N+](C)(C)C
TARGET ENTITY: porcine pancreatic PLA2 (Sus scrofa)
OUTPUT UNIT: %
MEASURED NUMBER: 62
--
COMPOUND: CCCCCCCCCCCCCCCCOCC(COP(=O)([O-])OCC[N+](C)(C)C)CC(=O)C(F)(F)CCCCCCCCCCCCCCCC (centres unmarked)
TARGET ENTITY: porcine pancreatic PLA2 (Sus scrofa)
OUTPUT UNIT: %
MEASURED NUMBER: 89
--
COMPOUND: CCCCCCCCCCCCCCCCOCC(COP(=O)([O-])OCC[N+](C)(C)C)CP(=O)(OCC)OCC (centres unmarked)
TARGET ENTITY: porcine pancreatic PLA2 (Sus scrofa)
OUTPUT UNIT: %
MEASURED NUMBER: 60
--
COMPOUND: CCCCCCCCCCCCCCCCOCC(COP(=O)([O-])OCC[N+](C)(C)C)OC(=O)CBr (centres unmarked)
TARGET ENTITY: porcine pancreatic PLA2 (Sus scrofa)
OUTPUT UNIT: %
MEASURED NUMBER: 85
--
COMPOUND: CCCCCCCCCCCCCCCCOCC(COP(=O)([O-])OCC[N+](C)(C)C)CSCCCCCCCCCCCCCCCC (centres unmarked)
TARGET ENTITY: porcine pancreatic PLA2 (Sus scrofa)
OUTPUT UNIT: %
MEASURED NUMBER: 69
--
COMPOUND: CCCCCCCCCCCCCCCCOCC(COP(=O)([O-])OCC[N+](C)(C)C)CC(N)CCCCCCCCCCCCCCCC (centres unmarked)
TARGET ENTITY: porcine pancreatic PLA2 (Sus scrofa)
OUTPUT UNIT: %
MEASURED NUMBER: 72
